Quick list: IC50 per entry.
molecular target: PDE4D7 (Homo sapiens (Human)); conditions: read-out: PDE4D7 IC50; PDE4D7 without asterisk
Sequence (Q08499 other isoform, or with tags, fused parts or gaps): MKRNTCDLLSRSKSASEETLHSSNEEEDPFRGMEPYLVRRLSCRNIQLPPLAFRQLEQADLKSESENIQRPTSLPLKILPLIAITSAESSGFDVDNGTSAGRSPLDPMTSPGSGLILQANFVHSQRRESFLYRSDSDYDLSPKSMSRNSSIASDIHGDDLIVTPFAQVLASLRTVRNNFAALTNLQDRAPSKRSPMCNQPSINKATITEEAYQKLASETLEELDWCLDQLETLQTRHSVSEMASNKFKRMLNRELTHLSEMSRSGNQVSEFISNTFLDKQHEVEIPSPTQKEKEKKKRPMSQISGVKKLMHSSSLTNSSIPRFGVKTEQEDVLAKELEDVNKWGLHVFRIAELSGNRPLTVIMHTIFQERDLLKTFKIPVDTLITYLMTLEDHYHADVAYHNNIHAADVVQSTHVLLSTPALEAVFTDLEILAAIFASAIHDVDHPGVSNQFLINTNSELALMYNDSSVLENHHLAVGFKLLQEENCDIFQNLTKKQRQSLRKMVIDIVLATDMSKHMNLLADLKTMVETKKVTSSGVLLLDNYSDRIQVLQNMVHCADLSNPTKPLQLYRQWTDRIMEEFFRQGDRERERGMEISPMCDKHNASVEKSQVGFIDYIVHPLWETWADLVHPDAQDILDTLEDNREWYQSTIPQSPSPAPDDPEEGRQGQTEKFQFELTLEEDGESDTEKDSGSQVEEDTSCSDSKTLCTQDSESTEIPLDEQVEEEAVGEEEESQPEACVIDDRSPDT
Counter-ions that a name gives are not always drawn.
property_name: IC50

{"compound": "CCc1c(C)nc(-c2ccc(Cl)s2)nc1Nc1ccc(CC(=O)NC)cc1 [Example 308]", "assay_value": "> 1 µM"}
{"compound": "NC(=O)Cc1ccc(Nc2cc(-c3cc(Cl)cc(Cl)c3)nc3c2CCC3)cc1 [Example 157, hydrochloride]", "assay_value": "> 1 µM"}
{"compound": "O=S1(=O)CCCc2nc(-c3cccc(Cl)c3)nc(Cc3ccc(CCO)cc3)c21 [Example 278]", "assay_value": "< 1 µM"}
